- System: HCT-15 colon
- Experiment Notes: NCI-60 one-dose screen, 48 h (100 = growth as untreated, 0 = no growth, -100 = all killed)
- Assay Conditions: 10 µM unless noted
About 83,000 compounds went through this panel and 20% of them were active in at least one assay; those are over-represented in the sample as a whole.
Parameter: growth (%)
Use % as the unit, but write only the number.

Examples with answers:
Compound	Assayed Target	growth, %
O=C(NCCNCCO)c1cc([N+](=O)[O-])cc([N+](=O)[O-])c1O	HCT-15 colon	106
O=c1oc2ccc3ccccc3c2cc1-c1ccnc2[nH]c(=S)[nH]c(=O)c12	HCT-15 colon	105
COC(=O)c1c[n+]([O-])ccc1OC	HCT-15 colon	103
CCCCCN1CCN(C(CC(=O)c2ccccc2)C(=O)c2ccccc2)CC1 (stereo not drawn)	HCT-15 colon	94.5
Brc1ccc(-c2nc3ccccc3s2)cc1	HCT-15 colon	91.6
c1ccc(-c2cn3ccnc3c(-c3ccc4ncn(C5CCCCC5)c4c3)n2)cc1	HCT-15 colon	48.4
COC(=O)c1ccc2[nH]c(O)c(C(=Nc3ccc(N(C)C(=O)CN4CCN(C)CC4)cc3)c3ccc([N+](=O)[O-])cc3)c2c1	HCT-15 colon	73
NC(CSC(c1ccccc1)(c1ccccc1)c1ccccc1)C(=O)NCC(=O)O (stereo not drawn)	HCT-15 colon	73.2

Query growth for `O=C(N/N=C\c1ccc(-c2ccc(Br)cc2)o1)c1cc2oc(-c3cccc(C(F)(F)F)c3)cc2[nH]1`
84.5

Quickly give me recorded growth for `CCOC(=O)c1csc(-c2ccc(COC(=O)c3ccccc3)o2)n1`
96

For the compound `c1cc(C2CCCCC2)ccc1OCCCCCCN1CCNCC1` , give its reported growth.
-64.5

Respond only with growth recorded for CC(=O)OCC1O[C@@H](OC(C)=O)[C@@H](NC(=O)NS(=O)(=O)c2ccccc2)C(OC(C)=O)[C@@H]1OC(C)=O (stereo partly drawn)
96.6
